# testedSystem: Polyunsaturated fatty acid 5-lipoxygenase (Rattus norvegicus)
# Sequence (P12527 whole entry): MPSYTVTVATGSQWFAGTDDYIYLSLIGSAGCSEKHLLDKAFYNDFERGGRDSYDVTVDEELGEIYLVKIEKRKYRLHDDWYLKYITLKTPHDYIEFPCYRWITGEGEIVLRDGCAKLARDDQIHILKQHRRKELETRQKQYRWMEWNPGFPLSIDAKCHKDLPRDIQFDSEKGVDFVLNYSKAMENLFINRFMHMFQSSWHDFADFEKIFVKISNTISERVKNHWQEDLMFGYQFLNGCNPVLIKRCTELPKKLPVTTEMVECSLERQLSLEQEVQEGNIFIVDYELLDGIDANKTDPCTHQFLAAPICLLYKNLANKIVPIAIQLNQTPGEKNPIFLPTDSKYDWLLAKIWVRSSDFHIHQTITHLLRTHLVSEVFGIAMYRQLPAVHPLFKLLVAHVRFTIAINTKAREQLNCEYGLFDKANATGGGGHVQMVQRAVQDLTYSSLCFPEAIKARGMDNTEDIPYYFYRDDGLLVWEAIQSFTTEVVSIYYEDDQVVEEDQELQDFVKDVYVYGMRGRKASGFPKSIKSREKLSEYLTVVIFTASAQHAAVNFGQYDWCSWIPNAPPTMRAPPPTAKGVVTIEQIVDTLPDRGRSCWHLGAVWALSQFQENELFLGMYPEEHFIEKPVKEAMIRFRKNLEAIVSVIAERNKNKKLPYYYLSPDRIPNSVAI
# assay: Inhibition of rat basophilic leukemia-1 (RBL-1) 5-lipoxygenase
# Assay type: cell-based
valueKind: IC50 (µM)
Just the number please, in µM, no unit attached.

Example entries begin here.
CCCCC[C@H](O)/C=C/C=C\CCCCCCCC(=O)O
82
CCCCC[C@@H](/C=C/C=C\C/C=C\C/C=C\CCCC(=O)OC)OC(C)=O
7.2
CCCCC[C@@H](/C=C/C=C\C/C=C\C/C=C\CCCC(=O)O)OO
3.4
CCCCCC(O)/C=C/C=C\CCCCCCCCCC(=O)O (configuration not stated)
35
CCCCCC(O)/C=C\C=C\CCCCCCCCCC(=O)O (configuration not stated)
58
CCCCCCC(O)/C=C/C#CCCCCCCCCCC(=O)O (configuration not stated)
32
CCCCC[C@H](O)/C=C/C=C\C/C=C\C=C\C(O)CCCC(=O)O (some centres not stated)
270
CCCCCC(O)/C=C/C#CCCCCCCCCC(=O)O (configuration not stated)
73

Please give the measured IC50 for this compound: `CCCCC[C@H](O)/C=C/C=C\CCCCCCCCCC(=O)O`
26

IC50 for CCCCC/C=C\C/C=C\C/C=C\C=C\C1CCCC(=O)O1 (configuration not stated) ?
23

IC50 for CCCCC/C=C\C/C=C\C/C=C\C=C\C(O)CCCC(=O)O (configuration not stated) ?
77

Quick one: IC50 of CCCCCC(/C=C/C=C\CCCCCCCCCC(=O)O)OC(C)=O (configuration not stated) ?
76

Tell me the measured IC50 of `CCCCC[C@H](O)/C=C/C=C\C/C=C/CCCCC(=O)O` , please.
29

Which value of IC50 has been reported for CCCCCC(O)C#CC#CCCCCCCCCCC(=O)O (configuration not stated) in the records?
27

---

Measured pIC50 accompanies every entry in the list below.
# testedSystem: Polyunsaturated fatty acid 5-lipoxygenase (Rattus norvegicus, UniProt P12527)
# assay: Inhibition of rat basophilic leukemia-1 (RBL-1) 5-lipoxygenase
# Format: cell-based
Just so you know, pIC50 here is -log10 of the concentration in molar units; reply with that number alone.

CCCCC[C@H](O)/C=C\C=C/C/C=C\CCCCCCC(=O)O
4.11
CCCCC[C@@H](/C=C/C=C\C/C=C\C/C=C\CCCC(=O)O)OC(C)=O
4.77

Kindly consider the entry below.
Look up pIC50 for this compound: CCCCC[C@H](O)/C=C/C=C\C/C=C\C=C\C1CCCC(=O)O1 (stereo partly drawn)
4.60
